assay: qHTS assay to identify small molecule antagonists of the estrogen related receptor signaling pathway with the pleiotropic PPARgamma coactivator (PGC) from Tox21 10K library - cell viability counter screen (AID 1224840); conditions: PGC/ERR reporter cells viability, CellTiter-Fluor, 17.5 h; series mostly up to 92.4 µM; note: % is set by controls: 0 for no effect and ±100 for the full control effect; nearly all actives have a fitted effect of over 40% in size
Inconclusive results are not listed. Calls of active or inactive are those of the source. Calls come from the whole dose curve; as a rule, active = well fitted cell-killing curve with a large enough effect in the repeat runs (not every such curve was filed as active); inconclusive = weak or mixed curves, or effect the other way; inactive = no such curve, though single readings can be large or run the other way.
The reply should name one outcome from active, inactive

Called result for Cc1cn([C@H]2C[C@H](F)[C@@H](CO)O2)c(=O)[nH]c1=O
inactive

---

experiment: A CellTox Green Cytotoxicity Assay to monitor cytotoxicity in HEK293 cells - 32 hour (AID 1224881); conditions: CellTox Green fluorescence; series mostly up to 76.8 µM; note: nearly all actives have a fitted effect of over 40% in size
Inconclusive results are not listed. Activity calls are given as the source filed them. The call rests on the fitted dose curve; in most records, active means well fitted activation curve with a large enough effect in the repeat runs; inconclusive means weak or mixed curves; inactive means flat fitted curve, though single readings scatter.
Your response should consist of one outcome taken from 1 = active, -1 = inactive

Could you please tell me the result logged for Cc1cc(CCC(=O)OCCOCCOCCOC(=O)CCc2cc(C)c(O)c(C(C)(C)C)c2)cc(C(C)(C)C)c1O in this assay?
-1

What classification did CNc1c2c(nn1C)CCCC2 end up with in this test?
-1

For CC[C@@H](CO)NCCN[C@@H](CC)CO , what call appears in the results of this test?
-1

Dear all, I need the recorded test outcome for Cc1ccccc1S(N)(=O)=O , thank you.
-1

Which outcome was assigned to CC[C@H]1OC(=O)[C@H](C)[C@@H](O[C@H]2C[C@@](C)(OC)[C@@H](O)[C@H](C)O2)[C@H](C)[C@@H](O[C@@H]2O[C@H](C)C[C@H](N(C)C)[C@H]2O)[C@](C)(O)C[C@@H](C)C(=O)[C@H](C)[C@@H](O)[C@]1(C)O in this test?
-1

# fetch the recorded call for Cc1cc(CCCOc2c(C)cc(-c3noc(C(F)(F)F)n3)cc2C)on1 here
-1

Test call, this compound: O=C(/C=C/c1ccc([N+](=O)[O-])cc1)c1ccccc1
1

---

experiment: qHTS assay to identify small molecule agonists of the endoplasmic reticulum stress response signaling pathway (AID 1159516); conditions: ESRE-bla HeLa, ER stress beta-lactamase reporter, 5 h; series mostly up to 61 µM; note: % is set by controls: 0 for no effect and ±100 for the full control effect
Inconclusive results are not listed. Active and inactive are the calls of the source. Calls follow the shape of the dose curve; as a rule, active = well fitted activation curve with a large enough effect in the signal ratio in the repeat runs (not every such curve was filed as active); inconclusive = weak or mixed curves, or effect the other way; inactive = flat fitted curve, though single readings scatter; the % refers to the signal ratio.
Endpoint: activation

{"Compound": "CS(=O)(=O)c1ccc([C@@H](C[C@H]2CCC(=O)C2)C(=O)Nc2cnccn2)cc1Cl", "Result": "inactive"}
{"Compound": "CC[C@@H](CO)NCCN[C@@H](CC)CO", "Result": "inactive"}
{"Compound": "CNC1CCCN(c2c(F)cc3c(=O)c(C(=O)O)cn(C4CC4)c3c2OC)C1 (stereo unspecified)", "Result": "inactive"}
{"Compound": "C=CC(=O)NC(C)C", "Result": "inactive"}
{"Compound": "C=CC(=O)O", "Result": "inactive"}
{"Compound": "COC(=O)Nc1nc2ccc(C(=O)C3CC3)cc2[nH]1", "Result": "inactive"}
{"Compound": "O=C(/C=C/c1ccc([N+](=O)[O-])cc1)c1ccccc1", "Result": "inactive"}
{"Compound": "COC(=O)C1=C(C)NC(C)=C(C(=O)OC(C)(C)CN(C)CCC(c2ccccc2)c2ccccc2)C1c1cccc([N+](=O)[O-])c1 (stereo unspecified)", "Result": "inactive"}

I need activation for every entry listed below, if you could help.
1. O=c1[nH]c2cc(C(F)(F)F)c(N3CCOCC3)cc2n(CP(=O)(O)O)c1=O
2. CN1CCCN(C(c2ccccc2)c2ccc(Cl)cc2)CC1 (stereo unspecified)
3. CCC(C)(C)C(=O)O

1: inactive; 2: inactive; 3: inactive

Data provenance is PubChem BioAssay (Tox21).
